// data source = BindingDB's records for doi:10.1080/14756360801915476

Please respond with reported pKi for every item in the list.
- TGT: Deoxyuridine 5'-triphosphate nucleotidohydrolase (Plasmodium falciparum (isolate 3D7), UniProt Q8II92)
- Sequence (Q8II92 whole entry): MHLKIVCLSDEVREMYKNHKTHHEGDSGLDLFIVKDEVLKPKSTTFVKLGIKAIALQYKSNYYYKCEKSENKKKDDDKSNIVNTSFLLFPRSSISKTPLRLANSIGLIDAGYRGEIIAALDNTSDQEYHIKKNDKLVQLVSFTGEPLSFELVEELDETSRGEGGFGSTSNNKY
- MEASUREMENT NOTES: Inhibition Assay
- TEST CONTEXT: pH 8; 25 °C
When answering, recall that pKi equals minus log10 of the concentration in mol/L, and write that number alone.

Form: molecule = O=c1ccn(C2CC(O)C(CO[Si](c3ccccc3)(c3ccccc3)c3ccccc3)O2)c(=O)[nH]1 (configuration not stated) ; pKi = 5.55

Form: molecule = CC(C)(C)[Si](OCC1OC(n2ccc(=O)[nH]c2=O)CC1O)(c1ccccc1)c1ccccc1 (configuration not stated) ; pKi = 5.38

Form: molecule = CC(C)(C)[Si](C)(C)OCC1OC(n2ccc(=O)[nH]c2=O)CC1F (configuration not stated) [dUTPase inhibitor, 6] ; pKi = 5.20

Form: molecule = O=c1ccn(C2CC(O)C(COP(=O)(Oc3ccccc3)Oc3ccccc3)O2)c(=O)[nH]1 (configuration not stated) [dUTPase inhibitor, 1] ; pKi = 3.62

Form: molecule = CC(C)[Si](OCC1OC(n2ccc(=O)[nH]c2=O)CC1O)(C(C)C)C(C)C (configuration not stated) ; pKi = 3.64

Form: molecule = O=C(OCC1C=CC(n2ccc(=O)[nH]c2=O)O1)C12CC3CC(CC(C3)C1)C2 (configuration not stated) [dUTPase inhibitor, 3] ; pKi = 4.24

Form: molecule = CC(C)(C)[Si](OCC1C=CC(n2ccc(=O)[nH]c2=O)O1)(c1ccccc1)c1ccccc1 (configuration not stated) [dUTPase inhibitor, 5] ; pKi = 5.94

====

- TGT: Deoxyuridine 5'-triphosphate nucleotidohydrolase, mitochondrial (Homo sapiens, UniProt P33316)
- Sequence (P33316 whole entry): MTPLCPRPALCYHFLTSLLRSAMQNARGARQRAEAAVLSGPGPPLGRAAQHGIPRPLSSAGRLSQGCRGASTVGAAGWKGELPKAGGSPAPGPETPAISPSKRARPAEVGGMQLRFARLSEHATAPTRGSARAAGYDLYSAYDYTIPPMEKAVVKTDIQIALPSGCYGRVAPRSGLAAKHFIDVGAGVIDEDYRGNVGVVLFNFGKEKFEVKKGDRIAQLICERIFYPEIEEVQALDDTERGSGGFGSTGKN
- MEASUREMENT NOTES: Inhibition Assay
- TEST CONTEXT: pH 8; 25 °C
MEASURED ENDPOINT: Ki (µM)
Please reply with the bare figure in µM and do not write the unit itself.

Form: compound = CC(C)[Si](OCC1OC(n2ccc(=O)[nH]c2=O)CC1O)(C(C)C)C(C)C (stereo not drawn) ; Ki = 1000

Form: compound = O=c1ccn(C2CC(O)C(CO[Si](c3ccccc3)(c3ccccc3)c3ccccc3)O2)c(=O)[nH]1 (stereo not drawn) ; Ki = 908

Form: compound = O=C(OCC1C=CC(n2ccc(=O)[nH]c2=O)O1)C12CC3CC(CC(C3)C1)C2 (stereo not drawn) [dUTPase inhibitor, 3] ; Ki = 298

Form: compound = O=c1ccn(C2CC(O)C(CNCc3ccccc3)O2)c(=O)[nH]1 (stereo not drawn) ; Ki = 1000

Form: compound = O=c1ccn(C2CC(O)C(COP(=O)(Oc3ccccc3)Oc3ccccc3)O2)c(=O)[nH]1 (stereo not drawn) [dUTPase inhibitor, 1] ; Ki = 135

Form: compound = CC(C)(C)[Si](OCC1OC(n2ccc(=O)[nH]c2=O)CC1O)(c1ccccc1)c1ccccc1 (stereo not drawn) ; Ki = 805
